Dmax listing for selected compounds.
TARGET ENTITY: HPK1 (Homo sapiens)
Construct: A HiBiT tag was introduced by CRISPR on the N terminus of HPK1 in Jurkat cells; host or cells: Jurkat cells (ATCC TIB-152), monoclonal line with CRISPR knock-in of HiBiT at the endogenous HPK1 locus
EXPERIMENTAL DETAILS: HPK1 Cellular HiBit Degradation Assay
Assay type: cell-based
CONDITION CONTEXT: Jurkat, HiBiT HPK1 Jurkat cells, 24 hrs; maximum degradation vs DMSO vehicle control; read-out: Dmax Category

COMPOUND	VALUE TYPE	RECORDED MEASUREMENT
CC(C)n1cnc2cc(-c3ccc4c(c3)N([C@H]3C[C@@H](N5CCCCC5)C3)C(=O)C43CCN(C(=O)C4CCN(C(=O)CC5CCN(c6ccc(C7CCC(=O)NC7=O)cn6)CC5)CC4)CC3)nc(Nc3ccccc3F)c21 (stereo partly shown)	Dmax	70 to 85%
CC(C)n1cnc2cc(-c3ccc4c(c3)N([C@H]3C[C@@H](N5CCCCC5)C3)C(=O)C43CCN(C(=O)C[C@@H]4CCN(C(=O)[C@H]5CC[C@@H](Nc6cccc7c6C(=O)N(C6CCC(=O)NC6=O)C7=O)CC5)C4)CC3)nc(NC3CC3)c21 (mixture of isomers)	Dmax	50 to 70%
CC(C)n1cnc2cc(-c3ccc4c(c3)N([C@H]3C[C@@H](N5CCCCC5)C3)C(=O)C43CCN(C(=O)C4CCN(C(=O)[C@H]5CC[C@H](Oc6ccc(C7CCC(=O)NC7=O)cc6)CC5)CC4)CC3)nc(NC3CC3)c21 (mixture of isomers)	Dmax	50 to 70%

As a next step, examine the compound that follows.
**Query** Name the recorded Dmax of the compound listed here: CC(C)n1cnc2cc(-c3ccc4c(c3)N([C@H]3C[C@@H](N5CCCCC5)C3)C(=O)C43CCN(C(=O)[C@H]4[C@@H]5CN(C(=O)C6CCN(c7ccc(C8CCC(=O)NC8=O)cn7)CC6)C[C@@H]54)CC3)nc(NC3CC3)c21 (mixture of isomers)
**Result** 70 to 85%

---

TARGET ENTITY: HPK1 (Homo sapiens)
Construct: A HiBiT tag was introduced by CRISPR on the N terminus of HPK1 in Jurkat cells; host or cells: Jurkat cells (ATCC TIB-152), monoclonal line with CRISPR knock-in of HiBiT at the endogenous HPK1 locus
EXPERIMENTAL DETAILS: HPK1 Cellular HiBit Degradation Assay
Type: cell-based
CONDITION CONTEXT: HiBiT HPK1 Jurkat cells, 24 hrs; concentration at which 50% of HPK1 was remaining; read-out: DC50 Category
VALUE TYPE: DC50

Please review the entries below; each comes with its answer.
COMPOUND	TARGET ENTITY	DC50
CC(C)n1cnc2cc(-c3ccc4c(c3)N([C@H]3C[C@@H](N5CCCCC5)C3)C(=O)C43CCN(C(=O)C4(C)CCN(C(=O)C5CCN(c6ccc(C7CCC(=O)NC7=O)nc6)CC5)CC4)CC3)nc(Nc3ccncc3F)c21 (mixture of isomers)	HPK1 (Homo sapiens)	< 0.1 µM
CC(C)n1cnc2cc(-c3ccc4c(c3)N(C3CC(N5CCCCC5)C3)C(=O)C43CCN(C(=O)C4(C)CCN(C(=O)C5(C)CCN(c6ccc(C7CCC(=O)NC7=O)cn6)CC5)CC4)CC3)nc(NC3CC3)c21 (racemic)	HPK1 (Homo sapiens)	< 0.1 µM
Cc1cc(C2CCC(=O)NC2=O)ccc1N1CCC(C(=O)N2CCC(C)(C(=O)N3CCC4(CC3)C(=O)N([C@H]3C[C@@H](N5CCCCC5)C3)c3cc(-c5cc6ncn(C(C)C)c6c(NC6CC6)n5)ccc34)CC2)CC1 (mixture of isomers)	HPK1 (Homo sapiens)	0.1 to 0.5 µM

As a next step, examine the compound that follows.
**Query** Report its DC50 with HPK1 (Homo sapiens) as the test system: CC(C)n1cnc2cc(-c3ccc4c(c3)N([C@H]3C[C@@H](N5CCCCC5)C3)C(=O)C43CCN(C(=O)C45CN(C(=O)C6CCN(c7ccc(C8CCC(=O)NC8=O)cn7)CC6)CC4C5(F)F)CC3)nc(NC3CC3)c21 (mixture of isomers)
**Result** < 0.1 µM

---

TARGET ENTITY: HPK1 (Homo sapiens, UniProt Q92918)
Construct: A HiBiT tag was introduced by CRISPR on the N terminus of HPK1 in Jurkat cells; host or cells: Jurkat cells (ATCC TIB-152), monoclonal line with CRISPR knock-in of HiBiT at the endogenous HPK1 locus
Sequence (Q92918 whole entry): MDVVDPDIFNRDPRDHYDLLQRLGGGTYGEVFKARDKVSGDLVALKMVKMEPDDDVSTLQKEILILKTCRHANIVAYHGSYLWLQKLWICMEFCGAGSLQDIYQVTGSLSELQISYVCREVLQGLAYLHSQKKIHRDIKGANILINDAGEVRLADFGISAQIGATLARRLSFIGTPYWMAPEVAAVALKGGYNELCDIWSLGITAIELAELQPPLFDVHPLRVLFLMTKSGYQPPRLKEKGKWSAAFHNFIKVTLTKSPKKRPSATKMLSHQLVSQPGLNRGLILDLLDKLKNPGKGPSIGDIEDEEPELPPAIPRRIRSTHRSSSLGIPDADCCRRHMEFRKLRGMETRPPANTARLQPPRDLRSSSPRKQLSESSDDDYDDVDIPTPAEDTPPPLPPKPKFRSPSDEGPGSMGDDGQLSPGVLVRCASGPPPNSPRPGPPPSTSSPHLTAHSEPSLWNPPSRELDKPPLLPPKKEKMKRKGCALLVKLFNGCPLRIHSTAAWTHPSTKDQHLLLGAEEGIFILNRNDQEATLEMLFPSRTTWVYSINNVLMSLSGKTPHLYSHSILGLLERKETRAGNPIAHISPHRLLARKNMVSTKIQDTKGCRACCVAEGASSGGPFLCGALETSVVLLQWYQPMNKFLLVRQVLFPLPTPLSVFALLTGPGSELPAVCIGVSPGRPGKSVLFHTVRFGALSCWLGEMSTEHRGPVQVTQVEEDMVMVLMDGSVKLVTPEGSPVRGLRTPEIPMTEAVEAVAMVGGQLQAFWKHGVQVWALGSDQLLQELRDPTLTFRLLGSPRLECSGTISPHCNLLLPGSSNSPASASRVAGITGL
EXPERIMENTAL DETAILS: HPK1 Cellular HiBit Degradation Assay
Format: cell-based
CONDITION CONTEXT: Jurkat, HiBiT HPK1 Jurkat cells, 24 hrs; maximum degradation vs DMSO vehicle control; read-out: Dmax Category
VALUE TYPE: Dmax

MOLECULE	RECORDED MEASUREMENT
CC(C)n1cnc2cc(-c3ccc4c(c3)N([C@H]3C[C@@H](N5CCCCC5)C3)C(=O)C43CCN(C(=O)C4(C)CCN(C(=O)C5CCN(c6ccc(C7CCC(=O)NC7=O)cc6)CC5)CC4)CC3)nc(Nc3ccccc3F)c21 (mixture of isomers)	> 85%

As a next step, examine the molecule that follows.
**Query** Name the recorded Dmax of the molecule listed here: CC(C)n1cnc2cc(-c3ccc4c(c3)N([C@H]3C[C@@H](N5CCCCC5)C3)C(=O)C43CCN(C(=O)[C@@H]4CCN(C(=O)[C@H]5CC[C@H](Nc6cccc7c6C(=O)N(C6CCC(=O)NC6=O)C7=O)CC5)C4)CC3)nc(Nc3ccccc3F)c21 (mixture of isomers)
**Result** > 85%

---

Dmax listing for selected compounds.
TARGET ENTITY: HPK1 (Homo sapiens, UniProt Q92918)
Construct: A HiBiT tag was introduced by CRISPR on the N terminus of HPK1 in Jurkat cells; host or cells: Jurkat cells (ATCC TIB-152), monoclonal line with CRISPR knock-in of HiBiT at the endogenous HPK1 locus
EXPERIMENTAL DETAILS: HPK1 Cellular HiBit Degradation Assay
Format: cell-based
CONDITION CONTEXT: Jurkat, HiBiT HPK1 Jurkat cells, 24 hrs; maximum degradation vs DMSO vehicle control; read-out: Dmax Category

COMPOUND	RECORDED MEASUREMENT
CC(C)n1cnc2cc(-c3ccc4c(c3)N([C@H]3C[C@@H](N5CCCCC5)C3)C(=O)C43CCN(C(=O)C4(C)CCN(C(=O)C5CCN(c6ccc(C7CCC(=O)NC7=O)nc6)CC5)CC4)CC3)nc(Nc3ccncc3F)c21 (mixture of isomers)	70 to 85%
Cc1cc(F)c(Nc2nc(-c3ccc4c(c3)N([C@H]3C[C@@H](N5CCCCC5)C3)C(=O)C43CCN(C(=O)CC4CCN(C(=O)C5CCN(C(=O)CNc6cccc7c6C(=O)N(C6CCC(=O)NC6=O)C7=O)CC5)CC4)CC3)cc3ncn(C(C)C)c23)cc1C(=O)NC(C)C (mixture of isomers)	50 to 70%
CC(C)n1cnc2cc(-c3ccc4c(c3)N([C@H]3C[C@@H](N5CCCCC5)C3)C(=O)C43CCN(C(=O)C4CN(C(=O)C5CCN(c6ccc(C7CCC(=O)NC7=O)cn6)CC5)CC(C)(C)C4)CC3)nc(NC3CC3)c21 (mixture of isomers)	70 to 85%
CC(C)n1cnc2cc(-c3ccc4c(c3)N([C@H]3C[C@@H](N5CCCCC5)C3)C(=O)C43CCN(C(=O)C4CCN(C(=O)C5CCN(c6ccc(C7CCC(=O)NC7=O)nc6)CC5)CC4)CC3)nc(Nc3ccccc3F)c21 (some centres unmarked)	70 to 85%

**Query** Name the recorded Dmax of the compound listed here: CC(C)n1cnc2cc(-c3ccc4c(c3)N([C@H]3C[C@@H](N5CCCCC5)C3)C(=O)C43CCN(C(=O)C4CCC5(CCC5)N(C(=O)C5CCN(c6ccc(C7CCC(=O)NC7=O)cn6)CC5)C4)CC3)nc(NC3CC3)c21 (mixture of isomers)
**Result** 70 to 85%

**Query** Name the recorded Dmax of the compound listed here: CC(C)n1cnc2cc(-c3ccc4c(c3)N([C@H]3C[C@@H](N5CCCCC5)C3)C(=O)C43CCN(C(=O)[C@@H]4CCN(C(=O)[C@H]5CC[C@H](N(C)c6ccc(C7CCC(=O)NC7=O)cn6)CC5)C4)CC3)nc(Nc3ccncc3F)c21 (mixture of isomers)
**Result** > 85%

**Query** Name the recorded Dmax of the compound listed here: CC(C)n1cnc2cc(-c3ccc4c(c3)N([C@H]3C[C@@H](N5CCCCC5)C3)C(=O)C43CCN(C(=O)C4C5CN(C(=O)C6CCN(c7ccc(C8CCC(=O)NC8=O)cn7)CC6)CC54)CC3)nc(Nc3ccccc3F)c21 (mixture of isomers)
**Result** > 85%

**Query** Name the recorded Dmax of the compound listed here: CC(C)n1cnc2cc(-c3ccc4c(c3)N([C@H]3C[C@@H](N5CCCCC5)C3)C(=O)C43CCN(C(=O)C4C5CC4CN(C(=O)C4CCN(c6ccc(C7CCC(=O)NC7=O)cn6)CC4)C5)CC3)nc(NC3CC3)c21 (mixture of isomers)
**Result** 70 to 85%
